Parameter IC50: see the listing below.
biological target: human NaV 1.7 (Homo sapiens); experiment: E-VIPR optical membrane potential assay with electrical stimulation; conditions: sodium channel inhibition; read-out: Binned Activity Data (IC50)
Sequence (Q15858 whole entry): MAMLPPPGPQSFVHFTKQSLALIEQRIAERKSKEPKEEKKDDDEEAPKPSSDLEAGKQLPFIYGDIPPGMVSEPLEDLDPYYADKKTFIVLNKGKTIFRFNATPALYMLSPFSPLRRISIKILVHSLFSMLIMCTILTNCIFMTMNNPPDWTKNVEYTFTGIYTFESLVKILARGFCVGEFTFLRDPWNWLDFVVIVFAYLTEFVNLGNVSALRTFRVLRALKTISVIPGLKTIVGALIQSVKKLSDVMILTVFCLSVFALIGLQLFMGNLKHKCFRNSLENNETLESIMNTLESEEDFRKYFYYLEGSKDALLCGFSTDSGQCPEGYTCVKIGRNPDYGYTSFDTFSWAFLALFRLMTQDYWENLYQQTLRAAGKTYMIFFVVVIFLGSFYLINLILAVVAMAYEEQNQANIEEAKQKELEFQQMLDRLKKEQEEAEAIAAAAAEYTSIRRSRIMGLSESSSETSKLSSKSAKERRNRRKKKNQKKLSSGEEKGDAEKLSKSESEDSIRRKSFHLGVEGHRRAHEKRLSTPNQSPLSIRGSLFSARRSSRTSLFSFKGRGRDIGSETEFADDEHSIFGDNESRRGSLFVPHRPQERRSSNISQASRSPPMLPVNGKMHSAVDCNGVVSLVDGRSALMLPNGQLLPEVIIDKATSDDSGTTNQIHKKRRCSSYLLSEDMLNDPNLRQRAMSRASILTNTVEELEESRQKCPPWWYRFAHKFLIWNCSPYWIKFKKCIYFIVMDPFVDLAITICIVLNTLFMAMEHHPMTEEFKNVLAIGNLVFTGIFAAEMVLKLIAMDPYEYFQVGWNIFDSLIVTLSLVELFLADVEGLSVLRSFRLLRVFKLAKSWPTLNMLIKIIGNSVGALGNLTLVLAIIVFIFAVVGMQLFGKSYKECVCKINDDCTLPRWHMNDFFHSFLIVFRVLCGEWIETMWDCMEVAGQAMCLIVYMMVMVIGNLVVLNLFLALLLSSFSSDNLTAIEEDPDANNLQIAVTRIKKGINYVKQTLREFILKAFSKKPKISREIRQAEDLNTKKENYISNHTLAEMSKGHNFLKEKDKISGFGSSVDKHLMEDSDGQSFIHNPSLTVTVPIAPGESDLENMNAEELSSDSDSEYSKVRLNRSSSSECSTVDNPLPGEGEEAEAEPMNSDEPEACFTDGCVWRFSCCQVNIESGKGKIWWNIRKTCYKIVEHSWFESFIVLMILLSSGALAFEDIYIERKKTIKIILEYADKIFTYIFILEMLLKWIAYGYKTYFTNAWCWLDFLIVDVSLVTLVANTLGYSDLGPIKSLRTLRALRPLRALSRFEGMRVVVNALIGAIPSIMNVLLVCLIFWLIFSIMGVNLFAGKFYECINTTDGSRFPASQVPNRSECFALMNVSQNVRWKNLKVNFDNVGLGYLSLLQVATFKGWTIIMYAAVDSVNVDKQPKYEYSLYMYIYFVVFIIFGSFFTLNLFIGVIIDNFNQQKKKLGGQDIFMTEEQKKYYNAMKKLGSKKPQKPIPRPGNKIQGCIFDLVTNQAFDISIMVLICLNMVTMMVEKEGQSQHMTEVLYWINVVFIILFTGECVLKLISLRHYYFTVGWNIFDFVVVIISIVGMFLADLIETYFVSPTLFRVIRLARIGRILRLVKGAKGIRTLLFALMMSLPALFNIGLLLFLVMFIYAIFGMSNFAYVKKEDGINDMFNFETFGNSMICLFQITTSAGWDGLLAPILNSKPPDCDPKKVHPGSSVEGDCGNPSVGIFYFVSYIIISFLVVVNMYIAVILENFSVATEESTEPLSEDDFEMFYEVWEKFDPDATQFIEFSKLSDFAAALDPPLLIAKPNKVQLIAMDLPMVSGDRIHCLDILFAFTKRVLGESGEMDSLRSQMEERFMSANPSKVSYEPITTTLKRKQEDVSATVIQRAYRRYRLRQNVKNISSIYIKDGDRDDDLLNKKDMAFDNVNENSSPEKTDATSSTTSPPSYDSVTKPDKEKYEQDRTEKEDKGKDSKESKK

{"columns": ["Chemical string", "IC50"],
 "data": [
  ["COc1ccc(C(=O)N2CCC3(CC2)Oc2cc(Cl)ccc2-n2cccc23)c(OC)c1", "≤ 2000 nM"],
  ["COC(C)(C)c1ccc(C(=O)N2CCC3(CC2)Oc2ccccc2-n2cccc23)cc1C", "≤ 2000 nM"],
  ["COc1cccc(F)c1C(=O)N1CCC2(CC1)Oc1ccccc1-n1c(C#N)ccc12", "≤ 2000 nM"],
  ["CNS(=O)(=O)c1ccc(C(=O)N2CCC3(CC2)Oc2ccccc2-n2c(C(F)(F)F)ccc23)cc1C", "≤ 2000 nM"]
]}

Reported IC50 of `Cn1ncc2c1-c1ccccc1OC21CCN(C(=O)c2ccc(N3CCCCC3)nc2)CC1` : > 5000 nM

get_value(item= `COc1cc(F)c(F)cc1C(=O)N1CCC2(CC1)Oc1ccccc1-c1c2cnn1C` , readout=IC50) returns > 5000 nM

The measured IC50 associated with `Cc1c(C(=O)N2CCC3(CC2)Oc2ccccc2-c2c3cnn2C)cnn1-c1ccccc1` reads 2000 to 5000 nM

Given item `COCCOc1ccc(C(=O)N2CCC3(CC2)Oc2cc(F)ccc2-n2cccc23)cc1OC` , the value recorded as its IC50 is ≤ 2000 nM
